tested on: Escherichia coli TOP10; test: shrunken log2 fold change of peptide-encoding DNA abundance (4.5 h post-induction vs induction); higher = less antimicrobial activity (less host growth inhibition); details: time post-induction: 4.5 h; library: site-saturation at positions 5, 18, 19, 20
Record Satisfied whenever shrunken log2 fold change is at -0.1 or higher; record Not satisfied when lower.

# example entries with known answers
RRIRPRPPRLPRPRPRPSILPRP ... Satisfied
RRIRWRPPRLPRPRPRPYGYPRP ... Not satisfied
RRIRPRPPRLPRPRPRPWPSPRP ... Not satisfied
RRIRWRPPRLPRPRPRPSTQPRP ... Satisfied
RRIRNRPPRLPRPRPRPSEIPRP ... Satisfied

Check if shrunken log2 fold change >= -0.1 (inclusive). Item: "RRIRSRPPRLPRPRPRPTKNPRP"
Satisfied

Confirm if shrunken log2 fold change reported for the sequence "RRIRERPPRLPRPRPRPNSGPRP" is -0.1 or above.
Not satisfied

# check: shrunken log2 fold change of "RRIRFRPPRLPRPRPRPSVAPRP" is greater than or equal to -0.1
Satisfied

====

test system: Escherichia coli TOP10; test: shrunken log2 fold change of peptide-encoding DNA abundance (4.5 h post-induction vs induction); higher = less antimicrobial activity (less host growth inhibition); details: time post-induction: 4.5 h; library: site-saturation at positions 5, 18, 19, 20
measure_name: shrunken log2 fold change

Recorded results for 6 sequences are shown here.
RRIRERPPRLPRPRPRPIDIPRP ... -0.01
RRIRIRPPRLPRPRPRPKTWPRP ... -0.258
RRIRVRPPRLPRPRPRPMQCPRP ... 0.0658
RRIRDRPPRLPRPRPRPYRNPRP ... -0.00595
RRIRMRPPRLPRPRPRPGRRPRP ... 0.724
RRIRDRPPRLPRPRPRPFKPPRP ... 0.00312

Return shrunken log2 fold change (reported value) for this sequence: "RRIRWRPPRLPRPRPRPDYGPRP"
-0.202

For "RRIRHRPPRLPRPRPRPLQCPRP" , write its shrunken log2 fold change.
-0.0439

Recall and state the measured shrunken log2 fold change for "RRIRPRPPRLPRPRPRPYEMPRP" .
-0.281

Identify shrunken log2 fold change associated with the sequence "RRIRMRPPRLPRPRPRPWVCPRP"
0.154

Find the measured shrunken log2 fold change of "RRIRMRPPRLPRPRPRPQAGPRP" and report it.
0.214

====

tested on: Escherichia coli TOP10; experiment: shrunken log2 fold change of peptide-encoding DNA abundance (4.5 h post-induction vs induction); higher = less antimicrobial activity (less host growth inhibition); conditions: time post-induction: 4.5 h; library: site-saturation at positions 5, 18, 19, 20
measure_name: shrunken log2 fold change
Just the number.

Field: example entries. Status: answers known.
RRIRARPPRLPRPRPRPYVTPRP ... -0.658
RRIRPRPPRLPRPRPRPENLPRP ... -0.278
RRIRHRPPRLPRPRPRPCWMPRP ... -0.032
RRIRSRPPRLPRPRPRPMSMPRP ... -0.293
RRIRKRPPRLPRPRPRPSYRPRP ... 0.0249
RRIRHRPPRLPRPRPRPNVQPRP ... -1.87

Tell me shrunken log2 fold change reported for "RRIRWRPPRLPRPRPRPKDLPRP"
-0.0295

Determine its reported shrunken log2 fold change: "RRIRLRPPRLPRPRPRPNIMPRP"
-0.602

====

system: Escherichia coli TOP10; experiment: shrunken log2 fold change of peptide-encoding DNA abundance (4.5 h post-induction vs induction); higher = less antimicrobial activity (less host growth inhibition); details: time post-induction: 4.5 h; library: site-saturation at positions 5, 18, 19, 20
measure_name: shrunken log2 fold change
Form field (numeric): enter value without unit.

RRIRARPPRLPRPRPRPYLPPRP ... 0.0397

Recall the reported shrunken log2 fold change of "RRIRERPPRLPRPRPRPAVRPRP" on Escherichia coli TOP10 and write it down.
0.00239

Using Escherichia coli TOP10 as the test system, report measured shrunken log2 fold change of "RRIRYRPPRLPRPRPRPQNRPRP" .
-0.0755

Look up and report shrunken log2 fold change, with Escherichia coli TOP10 as system, for "RRIRIRPPRLPRPRPRPNDMPRP"
-1.13

====

system: Escherichia coli TOP10; assay: shrunken log2 fold change of peptide-encoding DNA abundance (4.5 h post-induction vs induction); higher = less antimicrobial activity (less host growth inhibition); conditions: time post-induction: 4.5 h; library: site-saturation at positions 5, 18, 19, 20
measure_name: shrunken log2 fold change
Just the number.

See these solved cases before continuing.
RRIRSRPPRLPRPRPRPLGDPRP ... 0.0783
RRIRGRPPRLPRPRPRPCIAPRP ... 0.797
RRIRGRPPRLPRPRPRPNIMPRP ... 0.0649

Provide shrunken log2 fold change, tested on Escherichia coli TOP10, for "RRIRGRPPRLPRPRPRPVNFPRP" .
0.44

Determine reported shrunken log2 fold change for "RRIRSRPPRLPRPRPRPRHIPRP" ; test system: Escherichia coli TOP10.
-0.264

Fill: shrunken log2 fold change (Escherichia coli TOP10) for this sequence "RRIRARPPRLPRPRPRPVMVPRP"
0.0116

Give shrunken log2 fold change for this entry on Escherichia coli TOP10: "RRIRERPPRLPRPRPRPFFGPRP"
-0.217

Look up and report shrunken log2 fold change, with Escherichia coli TOP10 as system, for "RRIRRRPPRLPRPRPRPQEFPRP"
0.041

Please respond with reported shrunken log2 fold change (system Escherichia coli TOP10) for "RRIRDRPPRLPRPRPRPAQNPRP" .
0.308

# return shrunken log2 fold change for "RRIRDRPPRLPRPRPRPSCGPRP" , test system: Escherichia coli TOP10
0.301

Tell me its shrunken log2 fold change on Escherichia coli TOP10: "RRIRNRPPRLPRPRPRPSPAPRP"
0.0876

====

tested on: Escherichia coli TOP10; assay: shrunken log2 fold change of peptide-encoding DNA abundance (4.5 h post-induction vs induction); higher = less antimicrobial activity (less host growth inhibition); conditions: time post-induction: 4.5 h; library: site-saturation at positions 5, 18, 19, 20
measure_name: shrunken log2 fold change
Reply with the value as a number alone.

Example entries and their recorded answers appear below.
RRIRTRPPRLPRPRPRPLGAPRP ... 0.0945
RRIRQRPPRLPRPRPRPTRRPRP ... 0.556
RRIRDRPPRLPRPRPRPDHIPRP ... -0.0651
RRIRNRPPRLPRPRPRPAQCPRP ... -0.0739
RRIRPRPPRLPRPRPRPCTHPRP ... -0.0646

// Input: "RRIRRRPPRLPRPRPRPCYFPRP" . Output its shrunken log2 fold change only.
-0.0239

// Input: "RRIRHRPPRLPRPRPRPVRNPRP" . Output its shrunken log2 fold change only.
0.0796

Specify reported shrunken log2 fold change for the sequence shown: "RRIRGRPPRLPRPRPRPSYRPRP"
-0.144

Consider the sequence "RRIRRRPPRLPRPRPRPQTAPRP" and give its recorded shrunken log2 fold change.
-0.11

Please give the documented shrunken log2 fold change of "RRIRSRPPRLPRPRPRPQLSPRP"
-0.106

Could you please provide reported shrunken log2 fold change for "RRIRDRPPRLPRPRPRPVSKPRP" ? Thanks!
0.0275

Answer with reported shrunken log2 fold change of "RRIRVRPPRLPRPRPRPAMMPRP"
0.464

Read the entry "RRIRNRPPRLPRPRPRPTPPPRP" and write its reported shrunken log2 fold change.
0.49

Please list shrunken log2 fold change recorded for the sequence "RRIRYRPPRLPRPRPRPVTRPRP"
-0.129

Tell me its shrunken log2 fold change given "RRIRNRPPRLPRPRPRPQIIPRP" as the entry.
-0.106

====

The following sequences are shown together with reported shrunken log2 fold change values.
system: Escherichia coli TOP10; assay: shrunken log2 fold change of peptide-encoding DNA abundance (4.5 h post-induction vs induction); higher = less antimicrobial activity (less host growth inhibition); details: time post-induction: 4.5 h; library: site-saturation at positions 5, 18, 19, 20
Lab note: jot down the number only; don't add units.

RRIRMRPPRLPRPRPRPNVAPRP ... 0.099
RRIRFRPPRLPRPRPRPQKLPRP ... -0.211
RRIRERPPRLPRPRPRPGLTPRP ... -0.174
RRIRSRPPRLPRPRPRPNAAPRP ... 0.675
RRIRKRPPRLPRPRPRPLSPPRP ... 0.615

Now for a further sequence.
For the sequence "RRIRARPPRLPRPRPRPFRIPRP" , report shrunken log2 fold change.
-0.169

====

tested on: Escherichia coli TOP10; experiment: shrunken log2 fold change of peptide-encoding DNA abundance (4.5 h post-induction vs induction); higher = less antimicrobial activity (less host growth inhibition); conditions: time post-induction: 4.5 h; library: site-saturation at positions 5, 18, 19, 20;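 note: peptides expressed intracellularly from a pBAD plasmid library in pooled LB shake-flask culture, induced with 0.3% L-arabinose, DNA abundance read by NGS, three biological replicates, DESeq2 with apeglm shrinkage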
Listing of entries alongside the reported shrunken log2 fold change.
Form: value (number only, do not type unit).

Illustrative cases are given below, each with its answer.
RRIRIRPPRLPRPRPRPTRKPRP ... -0.101
RRIRMRPPRLPRPRPRPMQKPRP ... 0.0563
RRIRSRPPRLPRPRPRPIKVPRP ... -0.181
RRIRYRPPRLPRPRPRPCAPPRP ... -0.329
RRIRSRPPRLPRPRPRPGSSPRP ... -0.168

Identify measured shrunken log2 fold change corresponding to "RRIRSRPPRLPRPRPRPHRSPRP"
-0.188

Annotate the sequence "RRIRGRPPRLPRPRPRPTVAPRP" with its measured shrunken log2 fold change.
1.99

Fill in shrunken log2 fold change for record "RRIRFRPPRLPRPRPRPQCWPRP"
0.0388
